- Experiment Summary: Plasma pharmacokinetics, cycle 1 day 1 (LC–MS/MS, non-compartmental analysis)
- Type: in vivo, human
- Condition Label: human, plasma, oral, 5 mg, Tau 24 hr, cycle 1 day 1; read-out: AUC0-12, geometric mean
Test Readout: AUC(0-t) (ng·h/mL)
Hi! Could you send only the number? It should be in ng·h/mL, unit omitted.

Per the records, this compound ( C[C@@H]1COCCN1c1cc([C@]2(O)C[C@H]3CC[C@@H](C2)O3)c2cnn(-c3cc[nH]n3)c2n1 [camonsertib] ) has AUC(0-t) equal to 1800

###

- Experiment Summary: Plasma pharmacokinetics, cycle 1 day 1 (LC–MS/MS, non-compartmental analysis)
- Format: in vivo, human
- Condition Label: human, plasma, oral, 40 mg, Tau 12 hr, cycle 1 day 1; read-out: Cmax, geometric mean
Test Readout: Cmax (ng/mL)
Hi! Could you send only the number? It should be in ng/mL, unit omitted.

Per the records, this compound ( C[C@@H]1COCCN1c1cc([C@]2(O)C[C@H]3CC[C@@H](C2)O3)c2cnn(-c3cc[nH]n3)c2n1 [camonsertib] ) has Cmax equal to 3800

###

- Experiment Summary: Plasma pharmacokinetics, cycle 1 day 1 (LC–MS/MS, non-compartmental analysis)
- Assay type: in vivo, human
- Condition Label: human, plasma, oral, 200 mg, Tau 24 hr, cycle 1 day 1; read-out: Cmax, geometric mean
Test Readout: Cmax (ng/mL)
Hi! Could you send only the number? It should be in ng/mL, unit omitted.

Per the records, this compound ( C[C@@H]1COCCN1c1cc([C@]2(O)C[C@H]3CC[C@@H](C2)O3)c2cnn(-c3cc[nH]n3)c2n1 ) has Cmax equal to 9500

###

- Experiment Summary: Plasma pharmacokinetics, cycle 1 day 1 (LC–MS/MS, non-compartmental analysis)
- Format: in vivo, human
- Condition Label: human, plasma, oral, 10 mg, Tau 24 hr, cycle 1 day 1; read-out: AUC0-12, geometric mean
Test Readout: AUC(0-t)
The reply should consist of the numeric value with the unit placed after it.

Per the records, this compound ( C[C@@H]1COCCN1c1cc([C@]2(O)C[C@H]3CC[C@@H](C2)O3)c2cnn(-c3cc[nH]n3)c2n1 ) has AUC(0-t) equal to 4400 ng·h/mL

###

- Experiment Summary: Plasma pharmacokinetics, cycle 1 day 1 (LC–MS/MS, non-compartmental analysis)
- Type: in vivo, human
- Condition Label: human, plasma, oral, 80 mg, Tau 24 hr, cycle 1 day 1; read-out: Tmax, median
Test Readout: Tmax (h)
Hi! Could you send only the number? It should be in h, unit omitted.

Per the records, this compound ( C[C@@H]1COCCN1c1cc([C@]2(O)C[C@H]3CC[C@@H](C2)O3)c2cnn(-c3cc[nH]n3)c2n1 ) has Tmax equal to 1

###

- Experiment Summary: Plasma pharmacokinetics, cycle 1 day 1 (LC–MS/MS, non-compartmental analysis)
- Format: in vivo, human
- Condition Label: human, plasma, oral; Dose 120 mg, Tau 24 hr, cycle 1 day 1; read-out: Half-life, geometric mean (converted)
Test Readout: half-life (h)
Hi! Could you send only the number? It should be in h, unit omitted.

Per the records, this molecule ( C[C@@H]1COCCN1c1cc([C@]2(O)C[C@H]3CC[C@@H](C2)O3)c2cnn(-c3cc[nH]n3)c2n1 ) has half-life equal to 6.21
